Tested on: apoE secretion by THP-1 cell line
Type: cell-based, human
Details: compound 100 μM; 1.25 nM PMA; THP-1 cells, 3 days
Description: The hydroxyphosphonates (Ia) and phosphonophosphates (Ib) of the invention can modulate (increase or decrease) the apoE production in plasma and in tissues. […] Medium contained in the wells is harvested and centrifuged 5 min at 1200 rpm. Supernatants are store at −20° C. until apoE quantification. The cell pellets are resuspended in PBS and counted with a Z1 Coulter Counter. […] The reaction is stopped with the addition of culture medium and the detached cells are counted. ApoE was quantified by ELISA. […]
Field 'label' (enum: 1.0 / 0.0). Set to 1.0 when % ApoE Change is strictly under 80%; else 0.0.

[[record]]
compound = "CCOP(=O)(OCC)OC(c1ccc(OCc2cccnc2)cc1)P(=O)(OCC)OCC (stereo not shown)"
study_target = "apoE secretion by THP-1 cell line"
category = 0.0

[[record]]
compound = "CCOP(=O)(OCC)OC(c1cc(OC)c2c(c1)OCO2)P(=O)(OCC)OCC (stereo not shown)"
study_target = "apoE secretion by THP-1 cell line"
category = 1.0


Asked: Is % ApoE Change of CCOP(=O)(OCC)C(O)c1ccc(OCc2ccccn2)cc1 (stereo not shown) strictly below 80%?
Given back: 1.0

Asked: Is % ApoE Change of CCOP(=O)(OCC)OC(c1cccc(OCCCCCN2C(=O)c3ccccc3C2=O)c1)P(=O)(OCC)OCC (stereo not shown) strictly below 80%?
Given back: 1.0

Asked: Is % ApoE Change of CCOP(=O)(OCC)OC(c1ccc(-c2ccccc2)cc1)P(=O)(OCC)OCC (stereo not shown) strictly below 80%?
Given back: 0.0

Asked: Is % ApoE Change of CCOP(=O)(OCC)C(O)c1ccc(OCCCN2C(=O)c3ccccc3C2=O)cc1 (stereo not shown) strictly below 80%?
Given back: 0.0

Asked: Is % ApoE Change of CCOP(=O)(OCC)OC(c1cccc(OCc2cccnc2)c1)P(=O)(OCC)OCC (stereo not shown) strictly below 80%?
Given back: 0.0
